B1: VH:VL chains; a variant is named by its letters at X, in order (parent)
chain 1: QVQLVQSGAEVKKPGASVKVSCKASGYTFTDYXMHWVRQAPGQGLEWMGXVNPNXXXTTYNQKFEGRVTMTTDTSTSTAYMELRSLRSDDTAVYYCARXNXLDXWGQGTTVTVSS
chain 2: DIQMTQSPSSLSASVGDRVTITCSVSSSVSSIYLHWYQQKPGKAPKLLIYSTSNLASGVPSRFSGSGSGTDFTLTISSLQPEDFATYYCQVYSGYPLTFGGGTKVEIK

variants of: B1; test: yeast display scFab, FACS + sequencing; conditions: with MET
This is one part of the list. No count for the full screen is at hand.
value.type: antigen binding call

Example variants with recorded antigen binding call:
YRRRGALF binds
YTGTGSGA no binding
SKTKSSGA no binding
SKRKSSGA no binding
YKGKGSGS binds
VKGRGAWY binds

Prompt: Item `VTETGDSV` : provide antigen binding call
Completion: no binding

Prompt: Item `SGEEGSGA` : provide antigen binding call
Completion: no binding

Prompt: Item `SKAGGVGA` : provide antigen binding call
Completion: no binding

Prompt: Item `YARGGAGA` : provide antigen binding call
Completion: no binding
